Target: Histone deacetylase 2 (Homo sapiens)
Sequence (Q92769 whole entry): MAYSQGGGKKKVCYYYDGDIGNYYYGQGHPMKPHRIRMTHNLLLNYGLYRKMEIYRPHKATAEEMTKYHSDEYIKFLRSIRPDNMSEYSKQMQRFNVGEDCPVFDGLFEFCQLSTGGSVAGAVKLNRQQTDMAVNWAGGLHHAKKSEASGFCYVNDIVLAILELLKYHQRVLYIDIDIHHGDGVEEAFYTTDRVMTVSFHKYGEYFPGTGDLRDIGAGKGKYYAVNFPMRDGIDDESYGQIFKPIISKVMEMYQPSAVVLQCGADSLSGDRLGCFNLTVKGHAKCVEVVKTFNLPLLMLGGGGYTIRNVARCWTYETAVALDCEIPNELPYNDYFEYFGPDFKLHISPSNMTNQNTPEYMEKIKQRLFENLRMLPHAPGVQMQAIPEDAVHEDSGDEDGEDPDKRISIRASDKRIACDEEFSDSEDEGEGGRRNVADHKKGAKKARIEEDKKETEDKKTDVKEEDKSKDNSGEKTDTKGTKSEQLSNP
Experiment: Inhibition of recombinant human C-terminal His-tagged HDAC2 (1 to end residues) expressed in sf9 insect cells using Boc-Lys(Ac)-AMC as substrate incubated for 60 mins by fluorescence assay
Result Type: pIC50
The scale used: pIC50 is minus the common logarithm of the concentration in molar units.

COc1cccc(-c2ccc3c(NC(=O)C4CCC(C(=O)NO)CC4)n[nH]c3c2)c1 (configuration not stated) : 5.33
COc1cccc(-c2ccc3c(NC(=O)CCCCCCC(=O)NO)n[nH]c3n2)c1 : 8.28
COc1cccc(-c2ccc3c(NC(=O)CCCC(=O)NO)n[nH]c3c2)c1 : 6.77
COc1ccc(-c2ccc3c(NC(=O)CCCCCCC(=O)NO)n[nH]c3c2)cc1 : 8.38
CCOc1cccc(-c2ccc3c(NC(=O)CCCCCCC(=O)NO)n[nH]c3c2)c1 : 8.38

Reported pIC50 for COc1ccc(-c2ccc3c(NC(=O)CCCCCCC(=O)NO)n[nH]c3c2)cc1OC was 8.34

Reported pIC50 for COc1ccc(-c2ccc3c(NC(=O)CCCCCCC(=O)NO)n[nH]c3n2)cc1 was 8.05
